biological target: T1, Ac-IEPD-AMC
T1 chain: XIEPDX
Quick list: Kcat/Km per entry.

These recorded examples may help you get a feel for the data.
wild-type rat granzyme B (protein) IIGGHEAKPHSRPYMAYLQIMDEYSGSKKCGGFLIREDFVLTAAHCSGSKINVTLGAHNIKEQEKMQQIIPVVKIIPHPAYNSKTISNDIMLLKLKSKAKRSSAVKPLNLPRRNVKVKPGDVCYVAGWGKLGPMGKYSDTLQEVELTVQEDQKCESYLKNYFDKANEICAGDPKIKRASFRGDSGGPLVCKKVAAGIVSYGQNDGSTPRAFTKVSTFLSWIKKTMKK	3300 M⁻¹ s⁻¹
rat granzyme B N218A/R192A (protein) IIGGHEAKPHSRPYMAYLQIMDEYSGSKKCGGFLIREDFVLTAAHCSGSKINVTLGAHNIKEQEKMQQIIPVVKIIPHPAYNSKTISNDIMLLKLKSKAKRSSAVKPLNLPRRNVKVKPGDVCYVAGWGKLGPMGKYSDTLQEVELTVQEDQKCESYLKNYFDKANEICAGDPKIKRASFAGDSGGPLVCKKVAAGIVSYGQADGSTPRAFTKVSTFLSWIKKTMKKS	92 M⁻¹ s⁻¹
rat granzyme B N218T (protein) IIGGHEAKPHSRPYMAYLQIMDEYSGSKKCGGFLIREDFVLTAAHCSGSKINVTLGAHNIKEQEKMQQIIPVVKIIPHPAYNSKTISNDIMLLKLKSKAKRSSAVKPLNLPRRNVKVKPGDVCYVAGWGKLGPMGKYSDTLQEVELTVQEDQKCESYLKNYFDKANEICAGDPKIKRASFRGDSGGPLVCKKVAAGIVSYGQTDGSTPRAFTKVSTFLSWIKKTMKKS	6200 M⁻¹ s⁻¹

Asked: What does the data say about its Kcat/Km? Entry: rat granzyme B I99R (protein) IIGGHEAKPHSRPYMAYLQIMDEYSGSKKCGGFLIREDFVLTAAHCSGSKINVTLGAHNIKEQEKMQQIIPVVKIIPHPAYNSKTRSNDIMLLKLKSKAKRSSAVKPLNLPRRNVKVKPGDVCYVAGWGKLGPMGKYSDTLQEVELTVQEDQKCESYLKNYFDKANEICAGDPKIKRASFRGDSGGPLVCKKVAAGIVSYGQNDGSTPRAFTKVSTFLSWIKKTMKKS
Given back: 330 M⁻¹ s⁻¹

Asked: Quick one: Kcat/Km for rat granzyme B I99F (protein) IIGGHEAKPHSRPYMAYLQIMDEYSGSKKCGGFLIREDFVLTAAHCSGSKINVTLGAHNIKEQEKMQQIIPVVKIIPHPAYNSKTFSNDIMLLKLKSKAKRSSAVKPLNLPRRNVKVKPGDVCYVAGWGKLGPMGKYSDTLQEVELTVQEDQKCESYLKNYFDKANEICAGDPKIKRASFRGDSGGPLVCKKVAAGIVSYGQNDGSTPRAFTKVSTFLSWIKKTMKKS ?
Given back: 510 M⁻¹ s⁻¹

Asked: Query (protein): rat granzyme B N218A/R192E (protein) IIGGHEAKPHSRPYMAYLQIMDEYSGSKKCGGFLIREDFVLTAAHCSGSKINVTLGAHNIKEQEKMQQIIPVVKIIPHPAYNSKTISNDIMLLKLKSKAKRSSAVKPLNLPRRNVKVKPGDVCYVAGWGKLGPMGKYSDTLQEVELTVQEDQKCESYLKNYFDKANEICAGDPKIKRASFEGDSGGPLVCKKVAAGIVSYGQADGSTPRAFTKVSTFLSWIKKTMKKS ; field requested: Kcat/Km
Given back: 10 M⁻¹ s⁻¹
